EXPERIMENTAL TARGET: T1, shFcRn (soluble human FcRn) (human, UniProt P55899 24-297; P61769 21-119)
T1 construct: extracellular domain; Printed only as 'soluble human FcRn'; also called hFcRn (immobilized on a chip)
T1 sequence (P55899 24-297 limits assumed, chain 1 of 2): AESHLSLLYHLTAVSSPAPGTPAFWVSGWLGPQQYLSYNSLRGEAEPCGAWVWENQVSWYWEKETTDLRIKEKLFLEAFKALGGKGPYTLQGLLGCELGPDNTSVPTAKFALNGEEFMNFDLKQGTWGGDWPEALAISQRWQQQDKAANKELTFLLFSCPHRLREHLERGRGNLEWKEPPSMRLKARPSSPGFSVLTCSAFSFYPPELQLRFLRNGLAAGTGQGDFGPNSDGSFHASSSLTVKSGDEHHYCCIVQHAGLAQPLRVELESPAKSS
T1 sequence (P61769 21-119 limits assumed, chain 2 of 2): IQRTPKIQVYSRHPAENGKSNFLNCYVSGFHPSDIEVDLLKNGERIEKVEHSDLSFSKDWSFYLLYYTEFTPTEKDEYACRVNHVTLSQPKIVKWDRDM
PROTOCOL DESCRIPTION: SPR, shFcRn immobilized on chip, antibody as analyte, pH 6.0;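 note: kinetics fitted with a 1:1 Langmuir model, association 200 s and dissociation 600 s, samples diluted in PBST, double-referenced signals, values averaged across three shFcRn-coated cells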
Each record here notes measured koff.
Your answer should be a plain number; it is taken to be in s⁻¹.

• HL161AN variant No. 16 (LC:N25Q, HC:Q82E) (antibody, human IgG1, V domains shown, Variable domains only) VL: SYVLTQPPSVSVAPGQTARITCGGQNIGSTSVHWYQQKPGQAPVLVVHDDSDRPSGIPERFSGSNSGNTATLTISRVEAGDEADYYCQVRDSSSDHVIFGGGTKLTVLGQPKAAPSVTL VH: EVQLLESGGGLVQPGGSLRLSCAASEFTFGSCVMTWVRQAPGKGLEWVSVISGSGGSTYYADSVKGRFTISRDNSKNTLYLEMNSLRAEDTAVYYCAKTPWWLRSPFFDYWGQGTLVTVSS = 0.000556

Please fill in: koff reported for HL161AN variant No. 20 (LC:N25Q, HC:C32Y Q82S) (antibody, human IgG1, V domains shown, Variable domains only) VL: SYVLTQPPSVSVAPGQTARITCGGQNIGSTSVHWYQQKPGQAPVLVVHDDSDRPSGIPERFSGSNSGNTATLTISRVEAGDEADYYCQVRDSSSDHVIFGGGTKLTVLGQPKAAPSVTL VH: EVQLLESGGGLVQPGGSLRLSCAASEFTFGSYVMTWVRQAPGKGLEWVSVISGSGGSTYYADSVKGRFTISRDNSKNTLYLSMNSLRAEDTAVYYCAKTPWWLRSPFFDYWGQGTLVTVSS = 0.000509
